As shown below, each of these compounds has a reported melting point value.

C=CCOc1cc(-n2c(=O)cc(C(F)(F)F)n(C)c2=O)ccc1C#N ... 158 to 160 °C
CC(C)CN(C=NS(=O)(=O)c1c(Cl)nc2ccc(Cl)nn12)CC(C)C ... 151 to 154 °C
O=C(NC1CCCn2c1nc(-c1ccncc1)cc2=O)Oc1ccccc1 (racemic) ... 193 to 195 °C
CCCN1C(=O)c2cccnc2NS1(=O)=O ... 208 to 210 °C
COc1ccc(N2CCN(c3c(C)c(C)c4c(c3C)CC(C)(CN3CCOCC3)O4)CC2)cc1 (stereo not given) ... 137 to 142 °C

Given the entry `O=S(=O)(N=C(O)c1ccc(OCCn2ccnc2)cc1)c1ccccc1` , report its measured melting point.
250 to 252 °C

Please give the measured melting point for this compound: `COc1ccc2nccc(NC(=O)N3CCN(CCc4cnc5ccccc5n4)CC3)c2n1`
138 to 140 °C

# melting point lookup, item `COc1cc(N)c(Cl)cc1C(=O)NCC1CCN(CCCCCNC(=O)Nc2ccc(Cl)cc2)CC1`
204 to 206 °C

Endpoint output: melting point of `Nc1ccc2c(c1)OC1(CC1)C2=O` . Value?
188 to 189 °C

----------
quantity-kind: melting point

# annotated cases, reported melting point shown
CCOC(=O)N1C=CC2=NC(C)=NC(N(C)c3ccccc3)N21 (stereo not given) ... 202 °C
COC(=O)C1(CCCCl)Oc2ccccc2CCC1O (stereo not given) ... 107 to 109 °C
Cc1onc(-c2ccccc2)c1-c1ccc(S(N)(=O)=O)cc1 ... 171 to 174 °C
Cc1cccc2c1nc(-c1ccc3ccccc3c1)n2Cc1c(F)cccc1F ... 175 to 176 °C
CC(=O)Oc1cc2c(c3ccccc13)Nc1ccccc1S2 ... 184 to 185 °C
Cc1cccc(-c2cnc3c(N)ncnc3n2)c1 ... 248 to 250 °C
COc1cc(OCc2ccccn2)ccc1/C=C/C(=O)CC(=O)/C=C/c1c[nH]c2ccc(F)cc12 ... 183 to 186 °C
O=C1Nc2cccnc2C(=O)N2CCCC12 (stereo not given) ... 249 to 250 °C

State the recorded melting point for this entry: CCN1CCC2(c3cccc(O)c3)Cc3[nH]c(C(=O)N(CC)CC)c(C)c3CC2C1 (stereo not given)
221 to 223 °C

Which melting point value belongs to Cc1c2c(cn1C)NC(=O)C(O)N=C2c1ccccc1 (stereo not given) ?
243 °C

----------
quantity-kind: melting point

Guide cases for melting point, answers given:
COc1c(N2CC(=NO)C3(CC3)C2)c(F)cc2c(=O)c(C(=O)O)cn(C3CC3)c12 ... 233 to 235 °C
NC(=CC(=O)c1ccccn1)C1CC1 ... 145 to 150 °C
Cc1c(N)noc1C(F)(F)C(F)(F)F ... 32 to 34 °C
COc1ccc(N(Cc2cccc3ccccc23)c2ccccc2)cc1 ... 154 to 159 °C
COC(=O)c1nn(Cc2ccc(Cl)c(Cl)c2)c(=O)c2cc(OC)ccc12 ... 144 to 146 °C

Attention now turns to another entry.
melting point for `COc1ccc(C(=O)N2CCCC2=O)cc1O` ?
123 to 125 °C

----------
quantity-kind: melting point

C=Cc1cc2cc(OC)ccc2[nH]1 ... 80 to 81 °C
CC1(C)Oc2ccc(C#N)cc2[C@@H](OC2=CC(=O)OC2)[C@@H]1O (relative stereo) ... 111 to 114 °C
C[C@@H]1CN(C(=O)OC(C)(C)C)C[C@H]2Cc3cc(F)cnc3N21 ... 56.6 to 58.4 °C
COc1ccccc1[C@@]1(O)[C@H](O)CC(c2ccccc2)(c2ccccc2)[C@@H]2CN(C(=O)Cc3ccccc3N(C)C)C[C@@H]21 (racemic) ... 175 to 177 °C
CCOC(=O)c1ncn2c1CN(C)C(=O)c1cc([N+](=O)[O-])ccc1-2 ... 197 to 199 °C
O=C(NC(=O)c1cccs1)NC1CN2CCC1CC2 (centres undefined) ... 232 to 233 °C
CC(CO)(CO)NCc1c2ccccc2cc2cc3ccccc3cc12 ... 198 to 199 °C
O=C(O)c1cccc(CC2COc3ccc(OCc4ccccc4)cc3C2)c1 (single isomer, unassigned; (+)) ... 128 to 130 °C
CCCCCCC(=O)C=Cc1ccc(OC(C)=O)c(OC(C)=O)c1 ... 71 to 72 °C
Cc1ccc(F)c(CSc2nc(N[C@H](C)CO)c3ncc(=O)[nH]c3n2)c1 ... 202 to 204 °C

melting point for `COc1ccc(S(=O)(=O)N2CCc3[nH]c4c(cnc5cc(Cl)ccc54)c3C2)cc1` ?
> 250 °C

Given `COc1ccc(CNc2nnc(Cl)c3cc([N+](=O)[O-])ccc23)cc1Cl` , state its recorded melting point.
179 to 180 °C

Bench note: what melting point did c1ccc(C(c2ccc3[nH]nnc3c2)n2cncn2)cc1 (centres undefined) show?
183 °C

Given `NCc1ccn(C2=CC3=C(CC2)CCc2[nH]c(=O)c(=O)n(CC(=O)O)c23)c1` , state its recorded melting point.
> 250 °C
